assay system: Human P2X2/3 receptor (Homo sapiens, UniProt P56373+Q9UBL9)
Sequence (P56373 1-397): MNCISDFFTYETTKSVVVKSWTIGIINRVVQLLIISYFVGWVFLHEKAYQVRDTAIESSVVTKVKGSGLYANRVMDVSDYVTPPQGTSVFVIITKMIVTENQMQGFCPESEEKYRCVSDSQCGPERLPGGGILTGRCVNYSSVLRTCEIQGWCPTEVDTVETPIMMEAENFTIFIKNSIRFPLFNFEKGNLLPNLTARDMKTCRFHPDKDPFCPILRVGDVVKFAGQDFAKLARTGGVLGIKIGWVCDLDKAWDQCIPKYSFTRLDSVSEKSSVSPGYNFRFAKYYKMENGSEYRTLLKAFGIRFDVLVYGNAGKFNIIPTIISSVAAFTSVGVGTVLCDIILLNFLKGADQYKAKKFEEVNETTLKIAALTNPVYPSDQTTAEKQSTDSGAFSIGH
Sequence (Q9UBL9 1-471): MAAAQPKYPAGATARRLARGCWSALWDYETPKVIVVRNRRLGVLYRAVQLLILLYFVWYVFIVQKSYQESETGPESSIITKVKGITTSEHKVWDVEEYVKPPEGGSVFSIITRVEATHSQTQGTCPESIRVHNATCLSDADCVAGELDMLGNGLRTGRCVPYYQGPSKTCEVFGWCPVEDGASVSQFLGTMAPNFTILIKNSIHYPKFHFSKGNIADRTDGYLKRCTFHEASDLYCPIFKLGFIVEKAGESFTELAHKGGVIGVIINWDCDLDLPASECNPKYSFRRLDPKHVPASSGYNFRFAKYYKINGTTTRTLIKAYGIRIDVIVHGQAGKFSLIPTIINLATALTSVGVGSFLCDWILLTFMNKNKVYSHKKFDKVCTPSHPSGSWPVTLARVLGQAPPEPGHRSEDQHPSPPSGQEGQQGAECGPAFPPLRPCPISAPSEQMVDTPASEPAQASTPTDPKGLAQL
assay summary: Inhibitory activity on human P2X2/3 receptor (FLIPR calcium 6 assay, HEK293-P2X2/3 cells, agonist α,β-MeATP)
condition context: HEK293-P2X2/3 stably expressing cell line, FLIPR Tetra
measured metric: IC50 (nM)

# input smiles, IC50 (nM)
data = [
    ("CC(C)c1cnc2c(c1Oc1cnc(N)nc1N)CCN2", 100),
    ("CC(C)c1cnc2[nH]ccc2c1Oc1cnc(N)nc1N", 80),
]
